# Test system: OVCAR-3 ovarian
# experiment notes: NCI-60 one-dose screen, 48 h (100 = growth as untreated, 0 = no growth, -100 = all killed)
# conditions used: 10 µM unless noted
This is part of a sample that, as a whole, favours compounds with a hit. Of some 83,000 tested, about 20% had one in any assay. Active and inactive are the calls of the source. The calls were made as follows: active = growth percent below 10; inactive = the rest.
quantity measured: growth

Sample records with growth:
>>> df
                                   compound   measured_result
0  CN(C)CCCOc1c2ccc(Cl)cc2nc2c1oc1ccc(Cl)cc12  45.4% (inactive)
1  COc1ccccc1C(=O)CSc1nc(Nc2ccc(S(N)(=O)=O)cc2)c2ccccc2n1   107% (inactive)
2  OC1CCc2c(-c3ccc4ncnc(N5CCc6cc(F)c(Cl)cc65)c4c3)cncc21 (stereo not given)  37.6% (inactive)
3      Clc1ccc(Cc2nnc3sc(-c4cccnc4)nn23)cc1   107% (inactive)
4  O=c1[nH]c2ccccc2cc1CSc1ccccc1Nc1nccc(-c2ccc(C(F)(F)F)cc2)n1  69.8% (inactive)

For each of the compounds below, note its growth.
1. CCOC(=O)c1sc(N)c(C(=O)OCC)c1C
2. CN(C)c1ccc(/C=C2\Cc3c(F)ccc(Br)c3C2=O)cc1
3. Cc1cccc(/C=C/c2nn3c(-c4ccco4)nnc3s2)c1
4. OC1CCN(CCCOc2c3ccc(Cl)cc3nc3c2oc2ccc(Cl)cc23)CC1
5. CCCC(=O)NC(c1ccc2c(c1)OC(F)(F)O2)c1cc(C)c2cccnc2c1O (stereo not given)

Solution:
1: 70.5% (inactive); 2: 101% (inactive); 3: 110% (inactive); 4: 46.5% (inactive); 5: 24.8% (inactive)

----------
# Tested on: SF-539 CNS
# experiment notes: NCI-60 one-dose screen, 48 h
# conditions used: 10 µM unless noted
About 83,000 compounds went through this panel and 20% of them were active in at least one assay; those are over-represented in the sample as a whole. Activity calls are given as the source filed them. Rule for the calls: active = growth percent below 10; inactive = the rest.
Pick from Y = active, N = inactive when you respond.

Example entries begin here.
>>> df
                                   compound  category_label
0  O=C(CCN1C(=O)/C(=C/c2ccccc2F)SC1=S)N1CCOCC1               N
1  CN(C)c1ccc(-c2c(NC(C)(C)C)nc3c(OCCc4ccccc4)cccn23)cc1               N

Problem: Called result for C#Cc1nc(C2=C(C)C(OC(C)=O)/C(=N/OC(C)=O)C2)cs1 (centres undefined)
Solution: Y

Problem: Note, next up: `NC(=O)c1c(NC(=O)c2ccc(C3CCCCC3)cc2)sc2c1CCC(=O)C2`
Solution: N

Problem: Note, next up: `NS(=O)(=O)c1ccc(Nc2nc(Nc3ccccc3)nc(-n3nc(-c4ccccc4)cc3-c3ccccc3)n2)cc1`
Solution: N

Problem: Note, next up: `COc1cc(/C=C/C(=O)c2cc(OC)c(OC)c(OC)c2)ccc1Oc1nc(NCCO)nc(N2CCOCC2)n1`
Solution: Y

Problem: Note, next up: `COc1cc(/C=C/C(=O)c2cc(OC)c(OC)c(OC)c2)ccc1OCc1ccc(F)cc1`
Solution: Y

Problem: Note, next up: `OC1CCN(CCCOc2c3ccc(Cl)cc3nc3c2oc2ccc(Cl)cc23)CC1`
Solution: Y

Problem: Note, next up: `COc1ccc(/C=C/C(=O)c2ccc(NC(=O)CSc3nnc(-c4ccc5nc(-c6ccc(Cl)cc6)[nH]c5c4)o3)cc2)cc1`
Solution: N
